biological target: human CB2 (Homo sapiens, UniProt P34972); assay: cAMP assay in CHO cells stably expressing human CB2; type: cell-based; conditions: in words
Sequence (P34972 whole entry): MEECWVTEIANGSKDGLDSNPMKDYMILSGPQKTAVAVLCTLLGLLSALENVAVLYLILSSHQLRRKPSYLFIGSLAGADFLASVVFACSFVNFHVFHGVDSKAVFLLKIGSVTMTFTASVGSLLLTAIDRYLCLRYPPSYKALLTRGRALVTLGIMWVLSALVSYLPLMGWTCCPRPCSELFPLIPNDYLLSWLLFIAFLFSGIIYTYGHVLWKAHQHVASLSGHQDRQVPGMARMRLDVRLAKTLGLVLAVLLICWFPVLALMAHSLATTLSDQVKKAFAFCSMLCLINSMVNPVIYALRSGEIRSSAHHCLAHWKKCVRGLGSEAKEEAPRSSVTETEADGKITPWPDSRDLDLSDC
Measured parameter: functional activity in cAMP assay, human CB2

NC(=O)[C@@H]1CC(F)(F)CN1C(=O)c1ccc(N2CC(F)(F)C2)c(OCC2CC2)n1 full agonists
Cc1nonc1Cn1nnc2c(N3CC[C@H](O)C3)nc(C(C)(C)C)nc21 full agonists
Cc1nc([C@@](C)(CC2CC2)NC(=O)c2cc(OCC(F)(F)F)c(C3CC3)cn2)no1 full agonists

Origin of values: paper PMC6092622
